// each record: one item and its pIC50 for Acetylcholinesterase (Homo sapiens, UniProt P22303)
Lab note — pIC50 values are minus log10 of concentrations in M.

Cc1c(Cl)nc2ccccc2c1C(=O)NCCCCCCCNc1c2c(nc3ccccc13)CCCC2 ... 8.52

Would you kindly share the measured pIC50 for Cc1c(N2CCN(C)CC2)nc2ccccc2c1C(=O)NCCCCCCCNc1c2c(nc3ccccc13)CCCC2 ?
8.39

---

Target: Serotonin 3 (5-HT3) receptor (Rattus norvegicus, UniProt P35563+Q9JJ16)
Sequence (P35563 whole entry): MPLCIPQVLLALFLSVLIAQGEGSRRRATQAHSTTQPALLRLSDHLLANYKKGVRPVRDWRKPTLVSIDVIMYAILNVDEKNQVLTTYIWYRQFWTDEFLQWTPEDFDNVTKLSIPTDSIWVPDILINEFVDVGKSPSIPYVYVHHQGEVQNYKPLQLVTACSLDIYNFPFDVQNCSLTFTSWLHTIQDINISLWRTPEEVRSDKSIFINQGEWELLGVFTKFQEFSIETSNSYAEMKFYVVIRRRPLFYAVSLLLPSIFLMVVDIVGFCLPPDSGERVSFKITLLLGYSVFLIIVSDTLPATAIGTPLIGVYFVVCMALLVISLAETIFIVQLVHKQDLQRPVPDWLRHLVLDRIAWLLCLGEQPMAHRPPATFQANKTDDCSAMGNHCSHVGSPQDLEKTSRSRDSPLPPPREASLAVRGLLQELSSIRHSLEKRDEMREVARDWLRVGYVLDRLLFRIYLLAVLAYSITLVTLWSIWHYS
Sequence (Q9JJ16 whole entry): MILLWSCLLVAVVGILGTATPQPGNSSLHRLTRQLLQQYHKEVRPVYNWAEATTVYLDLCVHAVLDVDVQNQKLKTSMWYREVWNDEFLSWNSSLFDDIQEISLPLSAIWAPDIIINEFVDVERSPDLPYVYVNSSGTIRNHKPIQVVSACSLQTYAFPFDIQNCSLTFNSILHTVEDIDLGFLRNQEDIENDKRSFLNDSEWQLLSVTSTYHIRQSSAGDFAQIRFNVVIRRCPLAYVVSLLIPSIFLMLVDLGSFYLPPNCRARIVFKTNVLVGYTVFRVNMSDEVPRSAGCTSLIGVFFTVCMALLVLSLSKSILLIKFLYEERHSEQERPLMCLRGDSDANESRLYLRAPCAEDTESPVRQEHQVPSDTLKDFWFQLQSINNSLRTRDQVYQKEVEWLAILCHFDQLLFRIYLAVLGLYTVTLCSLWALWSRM
Documented Ki across a set of molecules
Just the number please, in nM, no unit attached.

CN1CCN(c2nc3ccccc3c3c2CN(C)C3=O)CC1 ... 2.1
CN1CCN(c2nc3ccccc3c3c2CCC3)CC1 ... 0.24
CN1CCN(c2nc3ccccc3c(CO)c2CO)CC1 ... 2.7
Cc1c(N2CCN(C)CC2)nc2ccccc2c1C(=O)N(C(C)C)C(C)C ... 2.2
CCCc1c(N2CCN(C)CC2)nc2ccccc2c1C(=O)N(C)Cc1ccccc1 ... 14
Cc1c(N2CCN(C)CC2)nc2ccccc2c1C(=O)N(C)Cc1ccccc1 ... 0.55
Cc1c(N2CCN(C)CC2)nc2ccccc2c1C(=O)c1ccccc1 ... 0.84
CCOC(=O)c1c(CC)c(N2CCN(C)CC2)nc2ccccc12 ... 0.21

// query Ki value for entry CN1CCN(c2nc3ccccc3c3c2CN(Cc2ccccc2)C3=O)CC1
6.2

Which Ki value belongs to CCOC(=O)c1c(C)c(N2CCNCC2)nc2ccccc12 ?
0.56

Name the reported Ki value associated with the molecule C#CCN(C)C(=O)c1c(C)c(N2CCN(C)CC2)nc2ccccc12
0.45

---

Biological target: Serotonin 3 (5-HT3) receptor (Rattus norvegicus, UniProt P35563+Q9JJ16)
READOUT NAME: Ki (nM)
Numbers only; they are read as nM.

Look over these answered cases.
Cc1c(N2CCN(C)CC2)nc2ccccc2c1C(=O)NCCCCCCCNc1c2c(nc3ccccc13)CCCC2 ... 5.6
CCN(CC)C(=O)c1c(C)c(N2CCN(C)CC2)nc2ccccc12 ... 0.37

What does the record list as Ki for CCCN(CCC)C(=O)c1c(C)c(N2CCN(C)CC2)nc2ccccc12 ?
0.11

Bench note: what Ki did CCCc1c(N2CCN(C)CC2)nc2ccccc2c1C(=O)N(CCC)CCC show?
1.2

Looking for the measured Ki of CCCc1c(N2CCN(C)CC2)nc2ccccc2c1C(=O)N(CC)CC , can you help?
0.92

Query: Ki; subject: CCCN1Cc2c(N3CCN(C)CC3)nc3ccccc3c2C1=O
3.6

Looking for the measured Ki of CCCN(CCC)C(=O)c1c(CC)c(N2CCN(C)CC2)nc2ccccc12 , can you help?
1.1

Query (compound): CCOC(=O)c1c(C)c(N2CCN(C)CC2)nc2ccccc12 ; field requested: Ki
0.43

---

Molecular target: Serotonin 3 (5-HT3) receptor (Rattus norvegicus, UniProt P35563+Q9JJ16)
One threshold, 2 nM, splits the recorded Ki values: lower ones are T, equal or higher ones are F.

Given the entry CCCCCN(CCCCC)C(=O)c1c(C)c(N2CCN(C)CC2)nc2ccccc12 , would its reported Ki be below 2 nM?
F

Please check: Ki for CCCCN(CCCC)C(=O)c1c(C)c(N2CCN(C)CC2)nc2ccccc12 , strictly under 2 nM or not?
T

Please check: Ki for CN1CCN(c2cc(C(=O)N(C)Cc3ccccc3)c3ccccc3n2)CC1 , strictly under 2 nM or not?
T

In plain terms, does CCOC(=O)c1c(N2CCN(C)CC2)nc2ccccc2c1C come in under 2 nM for Ki?
T

Hello, is Ki of the following molecule strictly smaller than 2 nM? CCN1Cc2c(N3CCN(C)CC3)nc3ccccc3c2C1=O
F

Given CCC(C)N1Cc2c(N3CCN(C)CC3)nc3ccccc3c2C1=O (stereo unspecified) , is recorded Ki strictly lower than 2 nM?
F

Please state whether Ki is below 2 nM for Cc1c(N2CCN(C)CC2)nc2ccccc2c1C(=O)N(C)c1ccc(Cl)cc1
F

Hello, I'm reviewing records and need to know if Ki of CCOC(=O)c1cc(N2CCN(C)CC2)nc2ccccc12 is below 2 nM. Could you check?
T

Below 2 nM on Ki? Entry CCc1c(N2CCN(C)CC2)nc2ccccc2c1C(=O)N(C)Cc1ccccc1
F

API: query returns whether the molecule falls strictly under 2 nM in Ki. Query: Cc1c(N2CCN(C)CC2)nc2ccccc2c1C(=O)N1CCCC1
T
